# maps each entry to its pIC50
# Tgt: Poly [ADP-ribose] polymerase 1 (Homo sapiens)
# Sequence (P09874 whole entry): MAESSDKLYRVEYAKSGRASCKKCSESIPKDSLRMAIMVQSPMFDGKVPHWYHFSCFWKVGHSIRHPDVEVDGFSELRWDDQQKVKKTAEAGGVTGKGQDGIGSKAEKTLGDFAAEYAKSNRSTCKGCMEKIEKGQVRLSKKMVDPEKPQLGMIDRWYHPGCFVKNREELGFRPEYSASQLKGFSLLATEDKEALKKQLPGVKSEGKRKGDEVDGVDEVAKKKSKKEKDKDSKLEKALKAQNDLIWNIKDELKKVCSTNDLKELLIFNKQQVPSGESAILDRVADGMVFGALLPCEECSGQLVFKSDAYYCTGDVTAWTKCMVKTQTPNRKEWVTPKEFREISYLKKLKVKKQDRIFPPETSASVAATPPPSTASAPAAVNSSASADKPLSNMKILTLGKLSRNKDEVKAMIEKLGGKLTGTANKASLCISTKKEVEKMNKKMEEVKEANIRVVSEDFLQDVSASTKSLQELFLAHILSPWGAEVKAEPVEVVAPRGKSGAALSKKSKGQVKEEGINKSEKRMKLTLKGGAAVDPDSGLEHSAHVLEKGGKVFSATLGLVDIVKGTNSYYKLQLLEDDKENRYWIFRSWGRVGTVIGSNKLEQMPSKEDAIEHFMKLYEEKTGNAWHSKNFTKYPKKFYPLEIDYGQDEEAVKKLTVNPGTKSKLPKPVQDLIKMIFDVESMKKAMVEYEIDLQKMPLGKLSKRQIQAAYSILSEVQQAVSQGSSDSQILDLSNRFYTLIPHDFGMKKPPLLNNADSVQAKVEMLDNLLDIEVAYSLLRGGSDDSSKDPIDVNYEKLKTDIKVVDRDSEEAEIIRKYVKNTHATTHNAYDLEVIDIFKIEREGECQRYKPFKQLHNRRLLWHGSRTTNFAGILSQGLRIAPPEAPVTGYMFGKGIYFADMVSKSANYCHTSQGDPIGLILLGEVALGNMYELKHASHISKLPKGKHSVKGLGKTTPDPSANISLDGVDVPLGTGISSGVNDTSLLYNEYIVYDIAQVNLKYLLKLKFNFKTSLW
pIC50: −log10 of the molar value.
Readout: pIC50

>>> print(df.to_string())
                                   compound  observed
0  O=C1NCC2c3c(cccc31)CCN2C(=O)[C@@H]1CCCN1 (stereo partly drawn)      8.40
1  O=C1NCC2c3c(cccc31)CCN2C(=O)Cc1ccc(OCc2ccccc2)cc1 (stereo not drawn)      7.80
2  CCN(CC)Cc1ccc(C(=O)N2CCc3cccc4c3C2CNC4=O)cc1 (stereo not drawn)      7.89
3  Cn1cc(CCC(=O)N2CCc3cccc4c3C2CNC4=O)cn1 (stereo not drawn)      7.85
4  O=C1NCC2c3c(cccc31)CCN2C(=O)CN1CCCCC1 (stereo not drawn)      8.22
5  O=C1NCC2c3c(cccc31)CCN2C(=O)Cc1cccc(Cl)c1 (stereo not drawn)      8.30
6  O=C1NCC2c3c(cccc31)CCN2C(=O)CN1CCC(c2ccccc2)CC1 (stereo not drawn)      9.30
7  O=C1NCC2c3c(cccc31)CCN2C(=O)C1CCCC1 (stereo not drawn)      7.96
